Biological target: T1, human CD5 cell differentiation marker (human, UniProt P06127 25-495)
T1 construct: whole, on cells; Cell-surface CD5; also called CD5 antigen; gp67
T1 sequence (looked up): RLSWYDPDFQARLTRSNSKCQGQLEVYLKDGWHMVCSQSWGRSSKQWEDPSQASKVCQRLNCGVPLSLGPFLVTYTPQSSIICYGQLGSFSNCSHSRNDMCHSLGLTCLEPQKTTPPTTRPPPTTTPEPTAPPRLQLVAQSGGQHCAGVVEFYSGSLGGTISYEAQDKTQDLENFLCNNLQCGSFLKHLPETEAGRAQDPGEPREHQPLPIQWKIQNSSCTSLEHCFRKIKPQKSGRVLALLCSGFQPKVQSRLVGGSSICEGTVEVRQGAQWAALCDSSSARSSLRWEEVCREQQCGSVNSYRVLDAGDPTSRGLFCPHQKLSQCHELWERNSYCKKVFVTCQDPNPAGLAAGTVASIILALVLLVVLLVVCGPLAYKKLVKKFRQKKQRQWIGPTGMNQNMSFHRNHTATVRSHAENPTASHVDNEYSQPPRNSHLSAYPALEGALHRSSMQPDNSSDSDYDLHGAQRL
Test: competition with 0.1 nM ^125I-cH65 IgG on Molt-4M cells, fitted with MacLigand
Measured Property: Kd (nM)
Could you give me the number in nM? Just the number is fine.

Binder | Measured Property | Unit Name | Recorded Measurement
chimeric H65 IgG (antibody, V domains shown, Light and heavy chain each consist of unmodified mouse V/J-segments fused to a human C-segment (human kappa / human gamma by the ELISA used); also called purified cH65 IgG) VH: QIQLVQSGPELKKPGETVKISCKASGYTFTNYGMNWVKQAPGKGLRWMGWINTHTGEPTYADDFKGRFAFSLETSASTAYLQINNLKNEDTATYFCTRRGYDWYFDVWGAGTTVTVSS VL: DIKMTQSPSSMYASLGERVTITCKASQDINSYLSWFQQKPGKSPKTLIYRANRLVDGVPSRFSGSGSGQDYSLTISSLDYEDMGIYYCQQYDESPWTFGGGTKLEIK | Kd | nM | 2.3
he3 Fab (Fab, V domains shown, Fab (he3 kappa and Fd) expressed in E. coli E104 from pING4628; also called Moderate-Risk Fab) VH: EIQLVQSGGGLVKPGGSVRISCAASGYTFTNYGMNWVRQAPGKGLEWMGWINTHTGEPTYADSFKGRFTFSLDDSKNTAYLQINSLRAEDTAVYFCTRRGYDWYFDVWGQGTTVTVSS VL: DIQMTQSPSSLSASVGDRVTITCRASQDINSYLSWFQQKPGKAPKTLIYRANRLESGVPSRFSGSGSGTDYTLTISSLQYEDFGIYYCQQYDESPWTFGGGTKLEIK | Kd | nM | 2.2
chimeric H65 Fab (Fab, V domains shown, Fab of the chimeric H65 antibody; also called Chimeric Fab) VH: QIQLVQSGPELKKPGETVKISCKASGYTFTNYGMNWVKQAPGKGLRWMGWINTHTGEPTYADDFKGRFAFSLETSASTAYLQINNLKNEDTATYFCTRRGYDWYFDVWGAGTTVTVSS VL: DIKMTQSPSSMYASLGERVTITCKASQDINSYLSWFQQKPGKSPKTLIYRANRLVDGVPSRFSGSGSGQDYSLTISSLDYEDMGIYYCQQYDESPWTFGGGTKLEIK | Kd | nM | 18.4

We now examine a further binder.
Give recorded Kd. low risk humanized H65 (he1) IgG (antibody, V domains shown, Whole IgG with human constant regions (detected with anti-human kappa and anti-human gamma), expressed transiently in CHO-K1; also called he1 H65 antibody; hH65) VH: QIQLVQSGPGLKKPGGSVRISCAASGYTFTNYGMNWVKQAPGKGLRWMGWINTHTGEPTYADDFKGRFTFSLDTSKSTAYLQINSLRAEDTATYFCTRRGYDWYFDVWGQGTTVTVSS VL: DIQMTQSPSSMSASLGDRVTITCRASQDINSYLSWFQQKPGKSPKTLIYRANRLVDGVPSRFSGSGSGTDYTLTISSLQYEDFGIYYCQQYDESPWTFGGGTKLEIK
2.1
